- Target Desc: FAP-expressing human WI-38 fibroblasts (Homo sapiens)
- Construct: FAP-expressing human WI-38 fibroblasts (ECACC) were cultured in EMEM; host or cells: WI-38 human fibroblasts
- Sequence (Q12884 whole entry): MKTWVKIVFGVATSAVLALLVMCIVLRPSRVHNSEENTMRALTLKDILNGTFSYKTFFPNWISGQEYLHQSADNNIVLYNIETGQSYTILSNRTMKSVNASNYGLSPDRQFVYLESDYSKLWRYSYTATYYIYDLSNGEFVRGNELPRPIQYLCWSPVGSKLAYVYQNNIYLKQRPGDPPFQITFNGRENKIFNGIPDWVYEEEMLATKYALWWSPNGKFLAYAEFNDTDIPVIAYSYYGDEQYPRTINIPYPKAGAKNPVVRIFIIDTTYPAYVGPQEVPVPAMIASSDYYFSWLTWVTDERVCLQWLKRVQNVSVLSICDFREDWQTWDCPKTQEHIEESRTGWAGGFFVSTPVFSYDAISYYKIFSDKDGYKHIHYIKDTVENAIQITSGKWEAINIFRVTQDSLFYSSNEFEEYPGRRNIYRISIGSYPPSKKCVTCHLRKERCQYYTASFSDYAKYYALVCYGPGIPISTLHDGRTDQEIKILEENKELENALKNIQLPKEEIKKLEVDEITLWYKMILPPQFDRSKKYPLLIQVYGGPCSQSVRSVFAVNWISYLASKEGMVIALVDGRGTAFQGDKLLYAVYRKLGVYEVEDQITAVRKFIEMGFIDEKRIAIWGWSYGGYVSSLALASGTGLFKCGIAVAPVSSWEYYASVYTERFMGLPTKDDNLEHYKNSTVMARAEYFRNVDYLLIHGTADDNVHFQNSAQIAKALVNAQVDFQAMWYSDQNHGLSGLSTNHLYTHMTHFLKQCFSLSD
- Test Summary: Competitive FACS binding assay
- Recorded Conditions: pIC50 Category (FACS), competition with 3 nM Cy5-labeled compound, WI-38 fibroblasts, 4° C., 1 hour
pIC50: −log10 of the molar value. Numbered stars: 1 amine (or outer) side, 2 acyl side, 3 side chain; on linkers, the order of the positions; unused ones are H or OH. Bridge positions count the residues as written; N and C are the ends. Peptide text beside a SMILES is read from it. mXylylene = c1cc(C[*:1])cc(C[*:2])c1
Endpoint Label: pIC50

[
  {
    "Compound": "CSCC[C@H](NC(C)=O)C(=O)N[C@H]1CSCc2cccc(c2)CSC[C@@H](C(=O)N[C@@H](CC(=O)O)C(=O)N[C@@H](Cc2c[nH]cn2)C(=O)N[C@@H](Cc2ccccc2)C(=O)N[C@@H](C)C(=O)N[C@@H](CC(=O)O)C(N)=O)NC(=O)[C@H](Cc2ccccc2)NC(=O)[C@H](CCC(=O)O)NC(=O)[C@H]([C@@H](C)O)NC(=O)[C@@H]2CCCN2C(=O)[C@@H]2CCCN2C1=O [3BP-3197] (Ac-MCPPTEFCDHFAD-NH2; linker 2-8 via mXylylene)",
    "pIC50": "6.10 to 7.00"
  }
]

Next compound, please.
Task: Item CCCCCC(=O)N[C@H]1CSCc2cc(CSCCNC(=O)CN3CCN(CC(=O)O)CCN(CC(=O)O)CCN(CC(=O)O)CC3)cc(c2)CSC[C@@H](C(=O)O)NC(=O)[C@H](Cc2cccc3ccccc23)NC(=O)[C@H](CCC(N)=O)NC(=O)[C@H]([C@@H](C)O)NC(=O)[C@@H]2CCCN2C(=O)[C@@H]2CCCN2C1 [3BP-3650] : provide pIC50
Result: > 8.00
